SYSTEM_TESTED: Human FRA on IGROV-1 human ovarian adenocarcinoma cells (human, UniProt P15328 25-234)
Sequence (P15328 25-234 limits assumed): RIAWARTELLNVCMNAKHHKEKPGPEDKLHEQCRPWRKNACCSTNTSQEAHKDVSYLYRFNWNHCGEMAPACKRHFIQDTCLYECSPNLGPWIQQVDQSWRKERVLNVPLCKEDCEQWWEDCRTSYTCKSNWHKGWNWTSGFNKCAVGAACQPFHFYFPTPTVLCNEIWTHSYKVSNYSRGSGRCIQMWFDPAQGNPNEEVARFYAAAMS
PROTOCOL_TEXT: cell-based or functional assay
QUANTITY_NAME: IC50 (Hum-ZAP secondary immunotoxin killing of IGROV-1 cells) (ng·mL)
One number for each entry, in ng·mL.

Example entries begin here.
# BINDER, OUTPUT_UNIT, EXPERIMENTAL_RESULT
measured = [
    ("MORAb-003 anti-FRA antibody, lot NB810-11 (galactose supplement; harvested 14 days after initiation of culture) (antibody, human IgG1, kappa, V domains shown, N-linked neutral glycans at Asn299 in SEQ ID NO: 5) VH: EVQLVESGGGVVQPGRSLRLSCSASGFTFSGYGLSWVRQAPGKGLEWVAMISSGGSYTYYADSVKGRFAISRDNAKNTLFLQMDSLRPEDTGVYFCARHGDDPAWFAYWGQGTPVTVSS VL: DIQLTQSPSSLSASVGDRVTITCSVSSSISSNNLHWYQQKPGKAPKPWIYGTSNLASGVPSRFSGSGSGTDYTFTISSLQPEDIATYYCQQWSSYPYMYTFGQGTKVEIKR", "ng·mL", 19),
    ("MORAb-003 anti-FRA antibody, lot NB859-27 (harvested 20 days after initiation of culture) (antibody, human IgG1, kappa, V domains shown, N-linked neutral glycans at Asn299 in SEQ ID NO: 5, also called Day 20 harvest) VH: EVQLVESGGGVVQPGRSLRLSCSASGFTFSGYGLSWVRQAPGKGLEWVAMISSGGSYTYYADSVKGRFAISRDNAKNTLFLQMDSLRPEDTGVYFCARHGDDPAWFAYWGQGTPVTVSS VL: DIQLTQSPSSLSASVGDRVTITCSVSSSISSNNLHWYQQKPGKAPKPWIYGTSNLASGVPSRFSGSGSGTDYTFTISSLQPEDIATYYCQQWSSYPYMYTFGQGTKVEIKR", "ng·mL", 23),
    ("MORAb-003 anti-FRA antibody, lot NB810-10 (positive control; harvested 14 days after initiation of culture) (antibody, human IgG1, kappa, V domains shown, N-linked neutral glycans at Asn299 in SEQ ID NO: 5, also called Pos. ctl; positive control (round 1)) VH: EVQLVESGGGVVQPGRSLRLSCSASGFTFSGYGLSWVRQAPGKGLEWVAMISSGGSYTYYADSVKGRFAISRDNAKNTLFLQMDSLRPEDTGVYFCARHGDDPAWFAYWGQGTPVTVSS VL: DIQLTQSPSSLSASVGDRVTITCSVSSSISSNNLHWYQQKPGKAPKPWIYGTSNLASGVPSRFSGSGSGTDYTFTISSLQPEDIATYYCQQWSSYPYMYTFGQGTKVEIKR", "ng·mL", 1630),
]

Parameter requested: IC50 (Hum-ZAP secondary immunotoxin killing of IGROV-1 cells). Apply to each item below.
1. MORAb-003 anti-FRA antibody, lot NB809-70 (CuCl supplement; harvested 13 days after initiation of culture) (antibody, human IgG1, kappa, V domains shown, N-linked neutral glycans at Asn299 in SEQ ID NO: 5) VH: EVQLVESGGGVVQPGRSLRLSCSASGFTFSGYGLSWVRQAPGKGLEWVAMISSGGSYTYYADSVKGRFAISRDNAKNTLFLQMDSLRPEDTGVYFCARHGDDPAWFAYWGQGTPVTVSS VL: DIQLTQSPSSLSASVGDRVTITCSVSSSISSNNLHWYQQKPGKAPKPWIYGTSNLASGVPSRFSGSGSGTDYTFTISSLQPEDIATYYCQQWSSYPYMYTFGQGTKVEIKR
2. MORAb-003 anti-FRA antibody, lot NB859-25 (harvested 14 days after initiation of culture) (antibody, human IgG1, kappa, V domains shown, N-linked neutral glycans at Asn299 in SEQ ID NO: 5, also called Day 14 harvest; positive control (round 3)) VH: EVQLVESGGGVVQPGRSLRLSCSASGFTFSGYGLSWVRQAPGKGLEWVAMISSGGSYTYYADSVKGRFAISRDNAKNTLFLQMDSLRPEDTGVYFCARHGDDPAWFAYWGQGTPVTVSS VL: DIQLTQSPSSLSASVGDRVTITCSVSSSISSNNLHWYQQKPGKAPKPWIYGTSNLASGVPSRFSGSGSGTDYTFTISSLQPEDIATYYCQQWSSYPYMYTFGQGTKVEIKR

Result:
1. 27
2. 32
